tested_target: Phosphodiesterase 4 (Homo sapiens, UniProt P27815+Q08499+Q07343+Q08493)
assay_summary: Inhibition of rolipram binding to PDE4
Assay type: protein assay
As shown below, each of these molecules has a reported Ki value.

[[record]]
structure_smiles = "COc1ccc2c(Cc3c(Cl)cncc3Cl)nnc(-c3ccccc3)c2c1"
measured_value = "0.271 µM"


Okay, now this molecule:
Field request: Ki | item: COc1ccc2c(Cc3c(Cl)cncc3Cl)nnc(-c3nccs3)c2c1
0.034 µM

====

tested_target: Phosphodiesterase 4 (Homo sapiens, UniProt P27815+Q08499+Q07343+Q08493)
assay_summary: Percent inhibition of human Phosphodiesterase 4 at 10e-7 M
Format: protein assay
measured_endpoint: Inhibition
Don't forget the unit after the number, please.

Field request: Inhibition | item: COc1ccc2c(Cc3c(Cl)cncc3Cl)nnc(N(C)C)c2c1
39%

Field request: Inhibition | item: CCCNc1nnc(Cc2c(Cl)cncc2Cl)c2ccc(OC)cc12
19%

Field request: Inhibition | item: COc1ccc2c(Cc3c(Cl)cncc3Cl)nnc(CCCCc3ccccc3)c2c1
19%

Field request: Inhibition | item: CCc1nnc(Cc2c(Cl)cncc2Cl)c2ccc(OC)cc12
23%

Field request: Inhibition | item: COc1ccc2c(Cc3c(Cl)cncc3Cl)nnc(N3CCN(C)CC3)c2c1
16%
